- Test system: immobilized GST-tagged bait protein domains
- Test description: ProP-PD phage selections (HD2 P8, sublibraries, HD2 P3, HD1 P8) with NGS and confidence level
- Format: binding, human
- Measurement context: bait AP2B1_adaptin__P63010_700_937; library HD
I'd appreciate it if you could supply HD confidence values for the items below.
Numbers only.

Observe how each entry below is paired with its result.
Find the measured HD confidence of VQPKQDAFANFANFSK and report it. 2

Please report the measured HD confidence for FADFSTLSKVNNEDPF 3

Please look at this sequence and report its HD confidence: EETFQLSRWTPFIKDI 3

Consider the sequence EPSTTPNNWADFSSTW . State its measured HD confidence. 3

Would you kindly look at the next entry?
Please supply the value of reported HD confidence for the item DVDYFGQQFDQISNRT 2

----------
- Measured target: TLN1 PTB (Homo sapiens, UniProt Q9Y490)
- Construct: Q9Y490; TLN1; PTB; 309; pHH0103; Sidhu Lab (PMID: 33438817); made in house; host or cells: bacteria (E. coli BL21(DE3) gold is named only for the phage-selection preparations)
- Sequence (Q9Y490 309-401): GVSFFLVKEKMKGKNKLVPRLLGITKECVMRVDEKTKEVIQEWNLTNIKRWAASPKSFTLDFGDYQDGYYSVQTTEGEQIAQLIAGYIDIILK
- Test description: FP competition, TLN1 PTB
- Assay type: binding
- Measurement context: FP competition with FITC-PIP5K1C probe
Where no end group is shown, it is not given here.
Reported endpoint: pKi
Give bare numbers, as −log10 of the molar value.

Report value only: pKi, TLN1 PTB (Homo sapiens, UniProt Q9Y490), AKWDTANNPLYKEATS-NH2 [ITB3] 3.30

----------
- Tested on: immobilized GST-tagged bait protein domains
- Test description: ProP-PD phage selections (HD2 P8, sublibraries, HD2 P3, HD1 P8) with NGS and confidence level
- Format: binding, human
- Measurement context: library HD2; bait CALM1_EF-hand__P0DP23_2_149; motif instance NOT in library (in_library_check FALSE, in_library_coverage 0)
Reported endpoint: motif_found

Using the record for LKVLVKAVLFACMLMRK , state its measured motif_found. FALSE

Return motif_found (reported value) for this sequence: TRKKTFKEVANAVKISASLMGT FALSE

Read off the recorded motif_found for ATLDALLAALRRIQRAD FALSE

State its motif_found: SKYITTIAGVMTLS FALSE

----------
For each entry below, report its pIC50 value.
- Measured target: KPNB1 HEAT (Homo sapiens)
- Construct: Q14974; KPNB1; HEAT; 485; pETM41; Genescript; 6-His-MBP (from vector pETM41) (cleaved yes); made in house; host or cells: bacteria (E. coli BL21(DE3) gold is named only for the phage-selection preparations)
- Sequence (Q14974 1-485): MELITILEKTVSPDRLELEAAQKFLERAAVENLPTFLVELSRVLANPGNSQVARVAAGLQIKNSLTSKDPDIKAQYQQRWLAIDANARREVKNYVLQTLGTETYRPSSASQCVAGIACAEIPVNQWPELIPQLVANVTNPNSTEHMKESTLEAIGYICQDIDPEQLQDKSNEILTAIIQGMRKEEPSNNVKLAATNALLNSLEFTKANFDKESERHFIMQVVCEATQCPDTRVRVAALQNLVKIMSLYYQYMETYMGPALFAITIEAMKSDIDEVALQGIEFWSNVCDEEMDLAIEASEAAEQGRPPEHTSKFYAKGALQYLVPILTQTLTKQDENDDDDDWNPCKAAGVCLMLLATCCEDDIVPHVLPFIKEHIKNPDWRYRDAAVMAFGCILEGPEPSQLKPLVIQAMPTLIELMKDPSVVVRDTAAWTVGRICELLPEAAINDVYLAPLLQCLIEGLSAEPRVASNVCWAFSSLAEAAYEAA
- Test description: FP competition, KPNB1 HEAT
- Type: binding
Give bare numbers, as −log10 of the molar value.

Look up and state reported pIC50 for Ac-AYAPPVFVFQKDKGQK-NH2 [RANBP3] 2.66

Here's the next entry for you.
Assign pIC50 to the following record: Ac-NPPVATFVFGQSSNPY-NH2 [NUP153] 4.31

----------
- Measured target: KPNB1 HEAT (Homo sapiens)
- Construct: Q14974; KPNB1; HEAT; 485; pETM41; Genescript; 6-His-MBP (from vector pETM41) (cleaved yes); made in house; host or cells: bacteria (E. coli BL21(DE3) gold is named only for the phage-selection preparations)
- Test description: FP competition, KPNB1 HEAT
- Format: binding
- Measurement context: FP competition with FITC-NUP153 probe; low-affinity value
pKi: −log10 of the molar value.
Reported endpoint: pKi

Quote pKi reported for Ac-AYAPPVFVFQKDKGQK-NH2 [RANBP3] please. ~3.00
